Reported pKd by item:
Molecular target: T1, human GPC3 (human, UniProt P51654 25-563)
T1 construct: range 25-563; soluble analyte; also called soluble human GPC3; glypican 3
T1 sequence (P51654 25-563 limits assumed): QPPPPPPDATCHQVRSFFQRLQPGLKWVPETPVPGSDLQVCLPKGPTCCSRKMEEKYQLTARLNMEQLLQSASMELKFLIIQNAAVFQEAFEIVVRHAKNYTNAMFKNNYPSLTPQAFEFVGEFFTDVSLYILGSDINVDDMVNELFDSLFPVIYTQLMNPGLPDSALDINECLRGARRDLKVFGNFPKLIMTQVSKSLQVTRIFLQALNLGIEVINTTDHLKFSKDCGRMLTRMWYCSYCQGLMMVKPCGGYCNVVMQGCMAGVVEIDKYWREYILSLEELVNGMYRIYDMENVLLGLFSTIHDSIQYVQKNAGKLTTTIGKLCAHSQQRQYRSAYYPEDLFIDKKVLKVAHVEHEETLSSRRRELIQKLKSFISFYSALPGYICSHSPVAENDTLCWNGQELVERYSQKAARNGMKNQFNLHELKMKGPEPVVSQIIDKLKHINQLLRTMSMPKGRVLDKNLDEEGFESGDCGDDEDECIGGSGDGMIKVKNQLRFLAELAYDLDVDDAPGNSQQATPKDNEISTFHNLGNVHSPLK
Experiment: SPR
pKd: −log10 of the molar value.
parameter: pKd

binder: H0610-G1dh/none-Hi-Kn010G3/L0212-k0 (antibody, V domains shown, one-arm) VH: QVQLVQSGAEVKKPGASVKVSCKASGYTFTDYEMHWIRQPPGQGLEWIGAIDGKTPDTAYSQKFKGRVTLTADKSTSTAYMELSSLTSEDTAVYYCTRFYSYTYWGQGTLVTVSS VL: DIVMTQSPLSLPVTPGEPASISCRPSQSPVHSNRNTYLHWYQQKPGQAPRLLIYKVSNRFSGVPDRFSGSGSGTDFTLKISRVEAEDVGVYYCYQGTQVPYTFGQGTKLEIKR
experimentalValue: 9.00
--
binder: H0610-G1dh/none-Hi-Kn010G3/L0157-k0 (antibody, V domains shown, one-arm) VH: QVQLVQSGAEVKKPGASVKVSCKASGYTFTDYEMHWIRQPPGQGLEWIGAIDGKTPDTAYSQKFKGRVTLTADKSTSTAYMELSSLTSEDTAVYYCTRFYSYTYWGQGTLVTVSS VL: DIVMTQSPLSLPVTPGEPASISCRSSQSLVHSNRNTYLHWYQQKPGQAPRLLIYKVSNRFSGVPDRFSGSGSGTDFTLKISRVEAEDVGVYYCNQGTQVPYTFGQGTKLEIK
experimentalValue: 8.59
--
binder: H0610-G1dh/none-Hi-Kn010G3/L0009-k0 (antibody, V domains shown, one-arm) VH: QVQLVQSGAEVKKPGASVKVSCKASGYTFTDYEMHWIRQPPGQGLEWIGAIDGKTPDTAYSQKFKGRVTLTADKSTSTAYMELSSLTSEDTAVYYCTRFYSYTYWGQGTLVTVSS VL: DIVMTQSPLSLPVTPGEPASISCRSPQSLVHSNRNTYLHWYQQKPGQAPRLLIYKVSNRFSGVPDRFSGSGSGTDFTLKISRVEAEDVGVYYCGQGTQVPYTFGQGTKLEIK
experimentalValue: 8.52
--
binder: H0610-G1dh/none-Hi-Kn010G3/L0137-k0 (antibody, V domains shown, one-arm) VH: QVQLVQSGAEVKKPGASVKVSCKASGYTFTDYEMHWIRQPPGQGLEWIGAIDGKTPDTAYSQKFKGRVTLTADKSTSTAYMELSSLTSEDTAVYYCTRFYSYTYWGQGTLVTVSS VL: DIVMTQSPLSLPVTPGEPASISCRSSQSLVHSNRNTYLHWYQQKPGQAPRLLIYKVSNRFGGVPDRFSGSGSGTDFTLKISRVEAEDVGVYYCGQGTQVPYTFGQGTKLEIK
experimentalValue: 8.23
--
binder: GCH094-G1dh/none-Hi-Kn010G3/L0201-k0 (antibody, V domains shown, one-arm) VH: QVQLVQSGAEVKKPGASVTVSCKASGYTFTDYEMHWVRQAPGEGLEWMGAIDGETPDTAYSEKFKGRVTLTADKSTSTAYMELSSLTSEDTAVYYCTRFYSYTYWGQGTLVTVSS VL: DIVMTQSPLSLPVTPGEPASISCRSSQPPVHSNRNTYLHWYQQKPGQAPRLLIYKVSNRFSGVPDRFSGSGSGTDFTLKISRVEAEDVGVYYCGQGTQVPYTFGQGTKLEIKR
experimentalValue: 8.93
--
binder: GCH073-G1dh/none-Hi-Kn010G3/L0000-k0 (antibody, V domains shown, one-arm) VH: QVQLVQSGAEVKKPGASVTVSCKASGYTFTDYEMHWIRQPPGEGLEWIGAIDGPTPDTAYSQKFEGRVTLTADKSTSTAYMELSSLTSEDTAVYYCTRFYSYTYWGQGTLVTVSS VL: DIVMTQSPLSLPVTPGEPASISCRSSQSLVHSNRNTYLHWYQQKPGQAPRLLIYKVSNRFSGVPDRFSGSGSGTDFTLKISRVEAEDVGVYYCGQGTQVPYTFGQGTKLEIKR
experimentalValue: 8.70
--
binder: H0610-G1dh/none-Hi-Kn010G3/L0160-k0 (antibody, V domains shown, one-arm) VH: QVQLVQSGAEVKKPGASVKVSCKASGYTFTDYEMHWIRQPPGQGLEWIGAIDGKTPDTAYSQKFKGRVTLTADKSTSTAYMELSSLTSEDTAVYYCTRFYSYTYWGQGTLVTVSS VL: DIVMTQSPLSLPVTPGEPASISCRSSQSLVHSNRNTYLHWYQQKPGQAPRLLIYKVSNRFSGVPDRFSGSGSGTDFTLKISRVEAEDVGVYYCTQGTQVPYTFGQGTKLEIK
experimentalValue: 8.67
--
binder: H0610-G1dh/none-Hi-Kn010G3/L0066-k0 (antibody, V domains shown, one-arm) VH: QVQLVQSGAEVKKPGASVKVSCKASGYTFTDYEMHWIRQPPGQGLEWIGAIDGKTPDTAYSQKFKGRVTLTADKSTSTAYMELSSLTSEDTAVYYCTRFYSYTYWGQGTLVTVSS VL: DIVMTQSPLSLPVTPGEPASISCRSSQSLVHSNRHTYLHWYQQKPGQAPRLLIYKVSNRFSGVPDRFSGSGSGTDFTLKISRVEAEDVGVYYCGQGTQVPYTFGQGTKLEIK
experimentalValue: 8.38
--
binder: GCH007-G1dh/none-Hi-Kn010G3/L0000-k0 (antibody, V domains shown, one-arm) VH: QVQLVQSGAEVKKPGASVKVSCKASGYTFTDYEMHWIRQPPGQGLEWIGAIDGKTPDTAYSDKFKGRVTLTADKSTSTAYMELSSLTSEDTAVYYCTRFYSYTYWGQGTLVTVSS VL: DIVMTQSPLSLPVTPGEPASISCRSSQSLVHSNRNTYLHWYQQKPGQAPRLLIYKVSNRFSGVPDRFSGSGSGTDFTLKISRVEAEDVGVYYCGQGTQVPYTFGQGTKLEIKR
experimentalValue: 8.31
--
binder: H0610-G1dh/none-Hi-Kn010G3/L0155-k0 (antibody, V domains shown, one-arm) VH: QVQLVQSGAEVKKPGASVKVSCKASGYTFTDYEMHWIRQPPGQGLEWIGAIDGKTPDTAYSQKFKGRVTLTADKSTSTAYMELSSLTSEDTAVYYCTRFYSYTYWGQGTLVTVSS VL: DIVMTQSPLSLPVTPGEPASISCRSSQSLVHSNRNTYLHWYQQKPGQAPRLLIYKVSNRFSGVPDRFSGSGSGTDFTLKISRVEAEDVGVYYCLQGTQVPYTFGQGTKLEIK
experimentalValue: 8.89

Source listed as patent US20250066503A1.
